The origin of these recorded values is ChEMBL document CHEMBL3286109.

- measurement-description: Cytotoxicity against human TZM-bl cells assessed as inhibition of cell viability by resazurin assay
- measurement-setup: read-out: TC50 (the source's name)
With a cut-off of 90 µM, any CC50 strictly below it is called Fulfilled; any CC50 meeting it or above is called Not fulfilled.

>  <compound-structure>
O=C(O)c1cccc(Cn2ccc3ccc(-c4ccc5cc(Cl)ccc5n4)cc32)c1

>  <qualitative-label>
Fulfilled

$$$$
>  <compound-structure>
COc1cccc(Cc2c[nH]c3cc(-c4ccc5ccn(Cc6cccc(C(=O)O)c6)c5c4)ccc23)c1

>  <qualitative-label>
Fulfilled

$$$$
>  <compound-structure>
O=C(O)c1cccc(Cn2ccc3ccc(-c4ccc5ccn(Cc6ccc(Oc7ccccc7F)cc6)c5c4)cc32)c1

>  <qualitative-label>
Not fulfilled

$$$$
>  <compound-structure>
COC(=O)c1cccc(Cn2ccc3ccc(-c4ccc5ccn(Cc6cccc(C(=O)O)c6)c5c4)cc32)c1

>  <qualitative-label>
Fulfilled

$$$$
>  <compound-structure>
O=C(O)c1cccc(Cn2cnc3ccc(-c4ccc5cc[nH]c5c4)cc32)c1

>  <qualitative-label>
Not fulfilled

$$$$
>  <compound-structure>
O=C(O)c1cccc(Cc2c[nH]c3cc(-c4ccc5cc[nH]c5c4)ccc23)c1

>  <qualitative-label>
Not fulfilled

$$$$
>  <compound-structure>
COC(=O)c1cccc(Cc2c[nH]c3ccc(-c4ccc5[nH]cc(Cc6cccc(C(=O)O)c6)c5c4)cc23)c1

>  <qualitative-label>
Not fulfilled

$$$$
